Test system: Plasmodium berghei
Experiment: Luciferase/luciferin-expressing antifolate-resistant parasites were used to infect a culture of HepG2 cells that were pre-incubated with compounds. Infected hepatocytes emit light due to the luciferase reaction. Assay results are presented as the percent inhibition of light emission compared to control. […]
Type: functional
Conditions: sporozoite, PBLUC_HILL_SLOPE 7.12, PBLUC_R_SQUARED 0.553, read-out: LUCIFERASE INFECTION ASSAY - IC50
readout_name: pIC50
// field semantics: pIC50 = negative decimal log of concentration (mol/L)

Can you share its pIC50? I mean this compound: COc1ccc(-c2cc([N+](=O)[O-])ccc2OC(C)C(=O)N2CCC(C)CC2)cc1 (stereo unspecified)
5.51

====

Test system: Plasmodium berghei
Assay: Luciferase/luciferin-expressing antifolate-resistant parasites were used to infect a culture of HepG2 cells that were pre-incubated with compounds. Infected hepatocytes emit light due to the luciferase reaction. Assay results are presented as the percent inhibition of light emission compared to control. […]
Assay type: functional
Conditions: sporozoite, HEPG2TOX_HILL_SLOPE 8.17, HEPG2TOX_R_SQUARED 0.938, PBLUC_HILL_SLOPE 4.13, PBLUC_R_SQUARED 0.0669, read-out: LUCIFERASE INFECTION ASSAY - IC50
readout_name: IC50

Under Plasmodium berghei: IC50 value of CCOC(=O)NC1=C/C(=N\S(=O)(=O)c2ccc(C)cc2)c2ccccc2C1=O ?
> 10 µM

====

Test system: Plasmodium berghei
Test: Luciferase/luciferin-expressing antifolate-resistant parasites were used to infect a culture of HepG2 cells that were pre-incubated with compounds. Infected hepatocytes emit light due to the luciferase reaction. Assay results are presented as the percent inhibition of light emission compared to control. […]
Format: functional
Settings: sporozoite, HEPG2TOX_HILL_SLOPE 7.71, 2.15, HEPG2TOX_R_SQUARED 0.735, 0.901, PBLUC_HILL_SLOPE 15.3, 3.44, PBLUC_R_SQUARED 0.0878, 0.809, read-out: LUCIFERASE INFECTION ASSAY - IC50
readout_name: pIC50
// field semantics: pIC50 = negative decimal log of concentration (mol/L)

Can you share its pIC50? I mean this molecule: CCCCc1ccc(CC(=O)NCc2ccc(Cn3cccn3)cc2)cc1
5.13

====

Test system: Plasmodium berghei
Assay: Luciferase/luciferin-expressing antifolate-resistant parasites were used to infect a culture of HepG2 cells that were pre-incubated with compounds. Infected hepatocytes emit light due to the luciferase reaction. Assay results are presented as the percent inhibition of light emission compared to control. […]
Type: functional
Conditions: sporozoite, PBLUC_HILL_SLOPE 12.5, PBLUC_R_SQUARED 0.242, read-out: LUCIFERASE INFECTION ASSAY - IC50
readout_name: pIC50
// field semantics: pIC50 = negative decimal log of concentration (mol/L)

Under Plasmodium berghei: pIC50 value of NC(=O)c1ccc(-c2cc(-c3ccc(F)c(Cl)c3)cnc2N)cc1 ?
5.43

====

Test system: Plasmodium berghei
Experiment: Luciferase/luciferin-expressing antifolate-resistant parasites were used to infect a culture of HepG2 cells that were pre-incubated with compounds. Infected hepatocytes emit light due to the luciferase reaction. Assay results are presented as the percent inhibition of light emission compared to control. […]
Format: functional
Details: sporozoite, FFLUC_HILL_SLOPE 1.75, FFLUC_R_SQUARED 0.121, PBLUC_HILL_SLOPE 11, PBLUC_R_SQUARED 0.572, read-out: LUCIFERASE INFECTION ASSAY - IC50
readout_name: pIC50
// field semantics: pIC50 = negative decimal log of concentration (mol/L)

Can you share its pIC50? I mean this compound: COc1ccc(-c2cnc(N)c(-c3ccc(O)c(OC)c3)c2)cn1
5.52

====

Test system: Plasmodium berghei
Experiment: Luciferase/luciferin-expressing antifolate-resistant parasites were used to infect a culture of HepG2 cells that were pre-incubated with compounds. Infected hepatocytes emit light due to the luciferase reaction. Assay results are presented as the percent inhibition of light emission compared to control. […]
Assay type: functional
Conditions: sporozoite, HEPG2TOX_HILL_SLOPE 11, HEPG2TOX_R_SQUARED 0.957, PBLUC_HILL_SLOPE 1.57, PBLUC_R_SQUARED 0.511, read-out: LUCIFERASE INFECTION ASSAY - IC50
readout_name: pIC50
// field semantics: pIC50 = negative decimal log of concentration (mol/L)

Can you share its pIC50? I mean this molecule: O=C(Nc1cc(C(F)(F)F)cc(C(F)(F)F)c1)c1csc([N+](=O)[O-])c1
5.76

====

System: Plasmodium berghei
Assay: Luciferase/luciferin-expressing antifolate-resistant parasites were used to infect a culture of HepG2 cells that were pre-incubated with compounds. Infected hepatocytes emit light due to the luciferase reaction. Assay results are presented as the percent inhibition of light emission compared to control. […]
Type: functional
Details: sporozoite, HEPG2TOX_HILL_SLOPE 7.83, HEPG2TOX_R_SQUARED 0.735, PBLUC_HILL_SLOPE 0.44, PBLUC_R_SQUARED 0.419, read-out: LUCIFERASE INFECTION ASSAY - IC50
readout_name: IC50 (nM)
Record the value in nM, omitting the unit from your answer.

Can you share its IC50? I mean this compound: C=CCNC(=O)CSc1nccc(-c2sc3sc(Br)c(C)c3c2C)n1
2880

====

System: Plasmodium berghei
Assay: Luciferase/luciferin-expressing antifolate-resistant parasites were used to infect a culture of HepG2 cells that were pre-incubated with compounds. Infected hepatocytes emit light due to the luciferase reaction. Assay results are presented as the percent inhibition of light emission compared to control. […]
Assay type: functional
Details: sporozoite, HEPG2TOX_HILL_SLOPE 2.37, HEPG2TOX_R_SQUARED 0.812, PBLUC_HILL_SLOPE 3.49, PBLUC_R_SQUARED 0.436, read-out: LUCIFERASE INFECTION ASSAY - IC50
readout_name: pIC50
// field semantics: pIC50 = negative decimal log of concentration (mol/L)

Can you share its pIC50? I mean this compound: CC(C)(C)OC(=O)N1CCc2nc(NC(=O)c3ccc(Cl)cc3F)sc2C1
5.32

====

System: Plasmodium berghei
Assay: Luciferase/luciferin-expressing antifolate-resistant parasites were used to infect a culture of HepG2 cells that were pre-incubated with compounds. Infected hepatocytes emit light due to the luciferase reaction. Assay results are presented as the percent inhibition of light emission compared to control. […]
Type: functional
Conditions: sporozoite, HEPG2TOX_HILL_SLOPE 2.37, HEPG2TOX_R_SQUARED 0.471, PBLUC_HILL_SLOPE 2.37, PBLUC_R_SQUARED 0.613, read-out: LUCIFERASE INFECTION ASSAY - IC50
readout_name: IC50 (µM)
Record the value in µM, omitting the unit from your answer.

Can you share its IC50? I mean this compound: N#Cc1ccc(CNC(=S)Nc2ccc(Cl)c(Cl)c2)cc1
3.85

====

System: Plasmodium berghei
Assay: Luciferase/luciferin-expressing antifolate-resistant parasites were used to infect a culture of HepG2 cells that were pre-incubated with compounds. Infected hepatocytes emit light due to the luciferase reaction. Assay results are presented as the percent inhibition of light emission compared to control. […]
Type: functional
Conditions: sporozoite, FFLUC_HILL_SLOPE 18, FFLUC_R_SQUARED 0.659, PBLUC_HILL_SLOPE 2.04, PBLUC_R_SQUARED 0.344, read-out: LUCIFERASE INFECTION ASSAY - IC50
readout_name: pIC50
// field semantics: pIC50 = negative decimal log of concentration (mol/L)

Can you share its pIC50? I mean this molecule: Cc1ccc(-c2nnc(N/N=C3/C=C(c4ccccc4)C(O)(c4ccccc4)C3)c3ccccc23)cc1C (stereo unspecified)
5.19

====

For each of the molecules below, state its IC90.
Tested on: Plasmodium berghei
Assay: Luciferase/luciferin-expressing antifolate-resistant parasites were used to infect a culture of HepG2 cells that were pre-incubated with compounds. Infected hepatocytes emit light due to the luciferase reaction. Assay results are presented as the percent inhibition of light emission compared to control. […]
Format: functional
Conditions: sporozoite, read-out: LUCIFERASE INFECTION ASSAY - IC90

Can you share its IC90? I mean this molecule: CC(NC(=O)C12CC3CC(CC(C3)C1)C2)C(=O)N/N=C/C1=C(N2CCOCC2)C(=C\c2ccccc2)/CC1 (stereo not given)
> 10 µM

Can you share its IC90? I mean this molecule: Cc1cc(C(=O)OCC(=O)NC(=O)NC(C)(C)C)c(C)n1-c1ccccc1
> 10 µM

Can you share its IC90? I mean this molecule: CC(Sc1nnc(/C=C/c2ccc(F)cc2)[nH]1)C(=O)NC(C)(C)C (stereo not given)
5.34 µM

Can you share its IC90? I mean this molecule: CCc1ccc2nc(Nc3nc(=O)cc(-c4cccc(OC)c4)[nH]3)nc(C)c2c1
> 8.52 µM

Can you share its IC90? I mean this molecule: O=C(NNC(=O)c1cc(F)c(F)c(F)c1F)c1ccc(COc2cccc3cccnc23)cc1
> 10 µM

Can you share its IC90? I mean this molecule: C=CCc1c(C)nc2c(-c3ccccc3)cnn2c1N1CCN(CCO)CC1
> 8.74 µM

Can you share its IC90? I mean this molecule: O=[N+]([O-])c1cc(Cl)ccc1Oc1c(Cl)cccc1Cl
> 10.4 µM

Can you share its IC90? I mean this molecule: FC(F)(F)c1ccccc1N/N=C/c1ccc(OCc2ccccc2)c(OCc2ccccc2)c1
> 10 µM

Can you share its IC90? I mean this molecule: Clc1ccc(-c2csc3ncnc(Sc4nnnn4C4CC4)c23)cc1
> 10 µM

Can you share its IC90? I mean this molecule: OCCCNc1ccc2ncc(-c3cccc(C(F)(F)F)c3)n2n1
1.21 µM

Can you share its IC90? I mean this molecule: Clc1ccc(/N=C/c2c(Sc3ccc(Cl)cc3)nc3sccn23)cc1
5.29 µM

Can you share its IC90? I mean this molecule: OC[C@H]1O[C@@H](c2nc(-c3ccc4c(c3)CCO4)no2)[C@H](O)[C@@H]1O
> 10.3 µM

Can you share its IC90? I mean this molecule: CCC(C(=O)Nc1nc(C)c(Cc2ccc3c(c2)OCO3)s1)c1ccccc1 (stereo not given)
> 10 µM

Can you share its IC90? I mean this molecule: O=C(Nc1ccc(Cl)cc1)n1ncc(Sc2ccc(Cl)cc2)c1-c1ccc(Cl)cc1
> 6.95 µM

Can you share its IC90? I mean this molecule: COc1ccc(N(CCC23CC4CC(CC(C4)C2)C3)S(=O)(=O)c2ccccc2)cc1
> 10 µM

Can you share its IC90? I mean this molecule: O=C(/C=C/c1ccc(Cl)c([N+](=O)[O-])c1)c1ccc(NC2=NCCCS2)cc1
9.95 µM

Can you share its IC90? I mean this molecule: Cc1cccc(Cn2nc(C(C)(C)C)cc2C(=O)Nc2ccc(C(C)(C)C)cc2)c1
> 8.18 µM

Can you share its IC90? I mean this molecule: COc1cc(-c2cc(-c3cc(OC)c(OC)c(OC)c3)cnc2N)ccc1O
6.84 µM

Can you share its IC90? I mean this molecule: N#C/C=C/C=C/c1nnn(-c2ccc(Cl)cc2)n1
12.6 µM

Can you share its IC90? I mean this molecule: CCOc1ccc(/C=C2\CCCC3C2=NN(C(=O)C2(S(=O)(=O)c4ccccc4)CC2)C3c2ccc(OCC)cc2)cc1 (stereo not given)
> 10 µM

Can you share its IC90? I mean this molecule: COc1cc(/C=C/C(=O)c2ccc(C3CCCCC3)cc2)cc(Br)c1OCC(=O)N(C)C
3.59 µM

Can you share its IC90? I mean this molecule: FC(F)(F)Oc1cccc(-c2cnc3sc(NCCc4ccncc4)nn23)c1
> 8.14 µM

Can you share its IC90? I mean this molecule: O=C1COc2ccc(-c3csc(Nc4ccccc4C(F)(F)F)n3)cc2N1
> 10 µM

Can you share its IC90? I mean this molecule: CCCc1c(NC(=O)Nc2cc(C(F)(F)F)cc(C(F)(F)F)c2)cnn1-c1ccccc1
3.79 µM

Can you share its IC90? I mean this molecule: CC(Sc1nnc(-c2cccs2)n1C(C)C1CC2CCC1C2)C(=O)N1CCCc2ccccc21 (stereo not given)
> 10 µM

Can you share its IC90? I mean this molecule: Cc1c(C)n(CCCO)c2ncn3nc(-c4ccc(F)cc4)nc3c12
5.99 µM

Can you share its IC90? I mean this molecule: O=[N+]([O-])c1cc(C(F)(F)F)ccc1Sc1nnc(-c2ccc(Cl)cc2)[nH]1
> 8.23 µM

Can you share its IC90? I mean this molecule: O=C1CSC(=N/N=C2\SC(CC(=O)Nc3ccc(Br)cc3)C(=O)N2Cc2ccco2)N1 (stereo not given)
> 10 µM

Can you share its IC90? I mean this molecule: CN(C)c1cccc(NCC2(c3ccnc(-c4ccccc4Cl)c3)CC2)c1
> 10 µM

Can you share its IC90? I mean this molecule: CCS(=O)(=O)N1CCC(C(=O)Nc2nnc(-c3ccc(Cl)cc3)o2)(c2ccccc2)CC1
1.21 µM

Can you share its IC90? I mean this molecule: CCCN(C(=O)c1ccccc1CCc1ccccc1)c1nc(-c2ccc(Cl)cc2Cl)cs1
> 10 µM

Can you share its IC90? I mean this molecule: ONC(=NC(=S)Nc1cc(Cl)ccc1Cl)c1ccccn1
9.52 µM

Can you share its IC90? I mean this molecule: CCOC(=O)/C(=N\Nc1cc(C(F)(F)F)ccc1Cl)N1CCN(C(c2ccccc2)c2ccccc2)CC1
> 10 µM

Can you share its IC90? I mean this molecule: Cc1cc(C(=O)Nc2nc3cc(C(F)(F)F)ccc3n2Cc2ccco2)c2c(C)noc2n1
3.24 µM

Can you share its IC90? I mean this molecule: Brc1cnc(N2CCN(C(c3ccccc3)(c3ccccc3)c3ccccc3)CC2)nc1
> 6.8 µM

Can you share its IC90? I mean this molecule: FC(F)(F)c1ccc(N/N=C/c2sc(N3CCOCC3)nc2-c2ccccc2)c(Cl)c1
> 10 µM

Can you share its IC90? I mean this molecule: O=C(Nn1cnc2sc3c(c2c1=O)CCCC3)c1cc(Br)ccc1O
> 10 µM

Can you share its IC90? I mean this molecule: CCO/C=N\C1=C(C#N)C(c2ccc(OC)cc2)c2ccc3ccccc3c2O1 (stereo not given)
> 8.58 µM

Can you share its IC90? I mean this molecule: O=C(Nc1cc(S(=O)(=O)N2CCCCCC2)ccc1OCC(F)(F)F)c1cccc2c[nH]nc12
> 10 µM

Can you share its IC90? I mean this molecule: CN(C)C(=O)c1nnsc1S(=O)(=O)c1ccc(Cl)cc1
> 9.95 µM
